The reported measurements were obtained from paper PMC8878317.

// reported Metabolite data: Octulose 8/1-Phosphate per item
Test system: P. falciparum 3D7 parasites
Experiment: Metabolomic profiling of compound-treated parasites (LC/MS)
Format: cell-based
Give your answer as a number; write no unit.

CCN(CC)S(=O)(=O)c1ccc(Cl)c(C(=O)Nc2ccc3nc(C)sc3c2)c1 | 0.05155
Cc1cc(Nc2ccc3ccccc3c2)n2ncnc2n1 | -0.4585
O=C1C(O)=C([C@H]2CC[C@H](c3ccc(Cl)cc3)CC2)C(=O)c2ccccc21 [Atovaquone, reference compound] | -0.01
COc1cc2[nH]c(C)c(-c3ccc(Oc4ccc(OC(F)(F)F)cc4)cc3)c(=O)c2cc1Cl | -0.704
CC1(C)N=C(N)N=C(N)N1OCCCOc1cc(Cl)c(Cl)cc1Cl | 0.08

GET /values?readout=Metabolite data: Octulose 8/1-Phosphate&item= "C[C@H]1Cc2c([nH]c3cc(Cl)c(F)cc23)[C@@]2(N1)C(=O)Nc1ccc(Cl)cc12" -1.92

GET /values?readout=Metabolite data: Octulose 8/1-Phosphate&item= "O=C(NNC(=O)c1csnn1)c1ccc(Cl)cc1" 0.04337

GET /values?readout=Metabolite data: Octulose 8/1-Phosphate&item= "N#Cc1cc(NC(=O)[C@H]2c3ccccc3C(=O)N(CC(F)(F)F)[C@@H]2c2cccnc2)ccc1F" -0.3837

GET /values?readout=Metabolite data: Octulose 8/1-Phosphate&item= "CCc1nc(N)nc(N)c1-c1ccc(Cl)cc1" -0.1128
